- Target Desc: hNav1.7 (Homo sapiens (Human), UniProt Q15858)
- Assay Text: Tritiated compound binding to membranes from cells expressing hNav1.7 and the β1 subunit, modified protocol (LBA, Ex. 243B)
- Applied Conditions: 300 pM [3H]compound, room temperature, read-out: Nav1.7 LBA (Ex. 243B) IC50
- Sequence (Q15858 whole entry, looked up): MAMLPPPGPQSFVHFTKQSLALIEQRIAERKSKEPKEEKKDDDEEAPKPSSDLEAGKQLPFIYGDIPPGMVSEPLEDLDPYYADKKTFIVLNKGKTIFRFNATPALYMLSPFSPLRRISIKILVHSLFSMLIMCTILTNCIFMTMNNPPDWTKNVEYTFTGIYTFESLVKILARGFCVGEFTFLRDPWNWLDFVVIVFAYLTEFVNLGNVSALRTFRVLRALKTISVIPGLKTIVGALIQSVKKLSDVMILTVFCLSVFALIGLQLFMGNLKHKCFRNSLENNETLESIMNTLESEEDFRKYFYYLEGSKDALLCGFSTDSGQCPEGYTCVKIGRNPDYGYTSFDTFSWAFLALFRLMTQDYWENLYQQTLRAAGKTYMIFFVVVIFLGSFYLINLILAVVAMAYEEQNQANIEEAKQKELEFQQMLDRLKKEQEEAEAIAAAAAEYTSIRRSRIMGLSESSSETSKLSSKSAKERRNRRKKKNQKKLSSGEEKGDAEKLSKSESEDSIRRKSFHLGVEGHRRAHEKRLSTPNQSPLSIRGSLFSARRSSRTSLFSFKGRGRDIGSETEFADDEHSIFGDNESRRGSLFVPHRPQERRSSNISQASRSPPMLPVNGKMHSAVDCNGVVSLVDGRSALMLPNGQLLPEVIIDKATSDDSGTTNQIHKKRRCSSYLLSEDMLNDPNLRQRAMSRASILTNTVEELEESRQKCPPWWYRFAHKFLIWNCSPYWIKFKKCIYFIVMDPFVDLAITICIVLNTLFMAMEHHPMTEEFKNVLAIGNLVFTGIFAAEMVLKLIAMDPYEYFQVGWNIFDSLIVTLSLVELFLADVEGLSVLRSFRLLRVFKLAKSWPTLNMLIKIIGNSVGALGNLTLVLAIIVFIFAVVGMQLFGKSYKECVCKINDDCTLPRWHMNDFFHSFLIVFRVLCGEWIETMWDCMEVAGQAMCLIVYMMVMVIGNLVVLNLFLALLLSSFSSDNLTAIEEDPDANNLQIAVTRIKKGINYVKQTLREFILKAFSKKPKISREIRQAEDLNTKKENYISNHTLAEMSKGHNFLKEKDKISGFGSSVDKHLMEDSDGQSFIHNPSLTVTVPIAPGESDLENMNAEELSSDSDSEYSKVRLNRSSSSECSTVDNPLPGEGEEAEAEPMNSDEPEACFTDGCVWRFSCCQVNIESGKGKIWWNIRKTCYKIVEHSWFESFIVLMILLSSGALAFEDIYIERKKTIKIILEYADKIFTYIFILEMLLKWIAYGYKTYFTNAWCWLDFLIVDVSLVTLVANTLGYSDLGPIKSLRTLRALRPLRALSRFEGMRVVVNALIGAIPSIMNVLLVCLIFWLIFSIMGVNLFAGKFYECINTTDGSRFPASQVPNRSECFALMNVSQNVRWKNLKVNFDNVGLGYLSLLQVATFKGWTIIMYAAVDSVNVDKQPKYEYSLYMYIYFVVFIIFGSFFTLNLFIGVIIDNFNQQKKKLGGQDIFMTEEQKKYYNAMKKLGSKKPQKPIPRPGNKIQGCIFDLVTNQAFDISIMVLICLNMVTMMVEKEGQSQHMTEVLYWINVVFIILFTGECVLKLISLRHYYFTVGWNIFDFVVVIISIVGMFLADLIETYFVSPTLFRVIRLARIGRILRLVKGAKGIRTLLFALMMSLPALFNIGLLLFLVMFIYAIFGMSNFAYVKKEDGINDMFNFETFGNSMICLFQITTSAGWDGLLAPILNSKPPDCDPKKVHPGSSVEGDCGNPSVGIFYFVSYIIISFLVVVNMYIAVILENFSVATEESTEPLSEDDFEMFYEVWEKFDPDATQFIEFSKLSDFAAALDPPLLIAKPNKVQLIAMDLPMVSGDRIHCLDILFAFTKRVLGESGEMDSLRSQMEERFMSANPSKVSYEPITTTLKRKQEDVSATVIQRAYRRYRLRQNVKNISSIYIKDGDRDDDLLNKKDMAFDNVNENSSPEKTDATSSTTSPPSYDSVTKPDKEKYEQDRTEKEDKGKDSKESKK
- Sequence (Q07699 whole entry partner, looked up): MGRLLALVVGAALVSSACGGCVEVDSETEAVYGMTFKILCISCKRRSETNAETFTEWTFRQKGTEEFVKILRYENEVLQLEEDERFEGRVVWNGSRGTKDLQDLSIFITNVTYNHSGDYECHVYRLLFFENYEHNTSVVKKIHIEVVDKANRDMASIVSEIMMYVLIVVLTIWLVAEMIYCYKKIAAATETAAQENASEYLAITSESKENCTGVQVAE
Where a name gives a salt, the structure may show the parent alone.
Reported Property: IC50 (µM)
# number only, unit µM dropped from output

Give recorded IC50. CN(C)[C@H]1C[C@@H](F)CC[C@@H]1Nc1cc(F)c(S(=O)(=O)Nc2nccs2)cc1Cl [Example 192]
0.324

Give recorded IC50. CN(CC(O)CF)[C@H]1CCCC[C@@H]1Nc1cc(F)c(S(=O)(=O)Nc2nccs2)cc1Cl (single isomer, unassigned) [Example 119]
0.184

Give recorded IC50. N#CC1CCN([C@H]2CCCC[C@@H]2Nc2cc(F)c(S(=O)(=O)Nc3nccs3)cc2Cl)CC1 [Example 149, formate]
0.52

Give recorded IC50. CN(C)[C@H]1C[C@@H](C(F)(F)F)CC[C@@H]1Nc1cc(F)c(S(=O)(=O)Nc2ccncn2)cc1C1CCC1 [Example 203]
0.0806

Give recorded IC50. CN(C1CN(CC(F)(F)F)C1)[C@H]1CCCC[C@@H]1Nc1cc(F)c(S(=O)(=O)Nc2nccs2)cc1Cl [Example 175]
0.316

Give recorded IC50. O=S(=O)(Nc1ccncn1)c1cc(Cl)c(N[C@H]2CCCC[C@@H]2N2CCC[C@](F)(CO)C2)cc1F [Example 221]
0.298

Give recorded IC50. CN(C)[C@H]1C[C@@H](C(F)(F)F)CC[C@@H]1Nc1cc(F)c(S(=O)(=O)Nc2ccncn2)cc1C1CC1 [Example 178]
0.205

Give recorded IC50. CN(C)[C@H]1C[C@H](c2cccc(C(F)(F)F)c2)CC[C@@H]1Nc1cc(F)c(S(=O)(=O)Nc2ccon2)cc1Cl [Example 229]
0.055

Give recorded IC50. O=S(=O)(Nc1nccs1)c1cc(Cl)c(N[C@H]2CCCC[C@@H]2N2CCC(O)CC2)cc1F [Example 131]
0.201

Give recorded IC50. CN1CCC(N(C)[C@H]2CCCC[C@@H]2Nc2cc(F)c(S(=O)(=O)Nc3cccc(F)n3)cc2Cl)CC1 [Example 109]
0.0507

Give recorded IC50. O=S(=O)(Nc1nccs1)c1cc(Cl)c(N[C@H]2CCCC[C@@H]2N2CCC[C@H]2CO)cc1F [Example 134]
0.279

Give recorded IC50. CN(C)[C@@H]1C[C@@H]2C[C@@H]2C[C@H]1Nc1cc(F)c(S(=O)(=O)Nc2nccs2)cc1Cl [Example 215]
2

Give recorded IC50. CN(C)[C@H]1Cc2ccccc2C[C@@H]1Nc1cc(F)c(S(=O)(=O)Nc2nccs2)cc1Cl [Example 165]
2

Give recorded IC50. CN(C)[C@H]1C[C@@H]2[C@H](C[C@@H]1Nc1cc(F)c(S(=O)(=O)Nc3nccs3)cc1Cl)C2(Cl)Cl [Example 194, formate]
2

* * *

- Target Desc: hNav1.7 (Homo sapiens (Human), UniProt Q15858)
- Assay Text: Patch voltage clamp electrophysiology assay (EP), Syncropatch 384PE, CHO cells expressing Nav1.7
- Type: cell-based
- Applied Conditions: holding potential -50 mV; […] compound incubation; read-out: EP_SP hNav1.7 (Ex. 243B) IC50
- Sequence (Q15858 other isoform, or with tags, fused parts or gaps): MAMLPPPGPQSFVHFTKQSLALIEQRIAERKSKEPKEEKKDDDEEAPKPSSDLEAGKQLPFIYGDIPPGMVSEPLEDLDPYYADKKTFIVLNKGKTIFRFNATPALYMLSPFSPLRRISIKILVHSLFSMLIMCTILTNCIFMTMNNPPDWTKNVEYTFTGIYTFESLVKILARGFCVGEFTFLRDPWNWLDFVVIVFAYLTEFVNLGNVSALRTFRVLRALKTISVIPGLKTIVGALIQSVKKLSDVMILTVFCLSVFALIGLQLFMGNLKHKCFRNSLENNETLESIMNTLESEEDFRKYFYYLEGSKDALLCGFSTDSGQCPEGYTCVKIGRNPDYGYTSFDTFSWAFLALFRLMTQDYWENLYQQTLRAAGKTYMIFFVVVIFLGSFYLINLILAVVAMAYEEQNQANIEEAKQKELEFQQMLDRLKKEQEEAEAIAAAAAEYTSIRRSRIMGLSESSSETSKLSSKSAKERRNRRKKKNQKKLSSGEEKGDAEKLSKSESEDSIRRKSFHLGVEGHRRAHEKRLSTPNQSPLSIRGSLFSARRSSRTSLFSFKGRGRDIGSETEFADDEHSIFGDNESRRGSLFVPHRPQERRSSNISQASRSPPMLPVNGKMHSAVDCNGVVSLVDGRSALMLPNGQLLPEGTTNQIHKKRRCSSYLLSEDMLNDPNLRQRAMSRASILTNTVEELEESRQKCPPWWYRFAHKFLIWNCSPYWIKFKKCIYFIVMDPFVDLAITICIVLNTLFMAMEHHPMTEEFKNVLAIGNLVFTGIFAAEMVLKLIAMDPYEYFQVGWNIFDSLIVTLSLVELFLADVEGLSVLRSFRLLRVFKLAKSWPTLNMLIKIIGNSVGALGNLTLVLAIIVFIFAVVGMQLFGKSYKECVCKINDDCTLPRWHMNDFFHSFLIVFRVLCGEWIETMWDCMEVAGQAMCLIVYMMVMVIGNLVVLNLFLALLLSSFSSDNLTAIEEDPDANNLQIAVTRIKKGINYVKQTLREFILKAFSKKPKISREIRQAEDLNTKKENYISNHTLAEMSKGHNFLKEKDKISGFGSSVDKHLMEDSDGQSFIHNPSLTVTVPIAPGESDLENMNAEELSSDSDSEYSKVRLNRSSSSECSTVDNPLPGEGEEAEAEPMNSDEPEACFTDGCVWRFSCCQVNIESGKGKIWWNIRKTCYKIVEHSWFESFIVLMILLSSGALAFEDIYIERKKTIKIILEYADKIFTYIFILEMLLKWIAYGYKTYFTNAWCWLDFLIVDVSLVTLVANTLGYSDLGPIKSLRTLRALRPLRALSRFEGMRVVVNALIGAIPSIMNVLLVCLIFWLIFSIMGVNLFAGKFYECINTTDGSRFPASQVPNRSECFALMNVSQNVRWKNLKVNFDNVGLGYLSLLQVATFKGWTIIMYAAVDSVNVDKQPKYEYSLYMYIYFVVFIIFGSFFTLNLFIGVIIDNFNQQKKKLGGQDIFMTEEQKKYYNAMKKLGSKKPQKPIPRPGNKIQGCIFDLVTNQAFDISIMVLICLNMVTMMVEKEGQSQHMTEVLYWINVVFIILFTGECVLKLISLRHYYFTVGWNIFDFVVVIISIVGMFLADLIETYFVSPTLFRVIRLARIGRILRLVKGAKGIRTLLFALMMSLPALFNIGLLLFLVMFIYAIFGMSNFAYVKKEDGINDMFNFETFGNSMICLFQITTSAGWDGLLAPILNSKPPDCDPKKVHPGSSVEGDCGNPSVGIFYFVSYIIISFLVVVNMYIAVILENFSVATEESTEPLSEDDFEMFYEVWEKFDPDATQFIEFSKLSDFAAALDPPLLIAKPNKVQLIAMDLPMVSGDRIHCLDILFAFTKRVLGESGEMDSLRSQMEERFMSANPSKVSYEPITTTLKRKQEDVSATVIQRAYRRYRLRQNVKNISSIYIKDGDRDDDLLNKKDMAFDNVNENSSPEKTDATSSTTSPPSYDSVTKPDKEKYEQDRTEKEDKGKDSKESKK
Structures can show the parent of a compound that is named as a salt.
For each record, write down the corresponding IC50.
The number alone won't do; follow it with the unit.

Give recorded IC50. `CC(=O)N1CC(N(C)[C@H]2CCCC[C@@H]2Nc2cc(F)c(S(=O)(=O)Nc3nccs3)cc2Cl)C1`
25.3 nM

Give recorded IC50. `N#C[C@@H]1CCCN([C@H]2CCCC[C@@H]2Nc2cc(F)c(S(=O)(=O)Nc3nccs3)cc2Cl)C1`
8.72 nM

Give recorded IC50. `O=S(=O)(Nc1ccncn1)c1cc(Cl)c(N[C@H]2CC[C@H](c3cccc(C(F)(F)F)c3)C[C@@H]2N2CCCC2)cc1F`
0.182 nM

Give recorded IC50. CN(C)[C@H]1C[C@@H](c2cccc(Cl)c2)CC[C@@H]1Nc1cc(F)c(S(=O)(=O)Nc2ccncn2)cc1Cl [Example 231, formate]
0.933 nM

Give recorded IC50. CN(C)[C@H]1CCCCC[C@@H]1Nc1cc(F)c(S(=O)(=O)Nc2nccs2)cc1Cl [Example 144, formate]
25.8 nM

Give recorded IC50. CCN(C)[C@H]1CCCC[C@@H]1N1CCOc2cc(S(=O)(=O)Nc3nccs3)c(F)cc21 (racemic)
23.4 nM

Give recorded IC50. `O=S(=O)(Nc1ccncn1)c1cc(Cl)c(N[C@H]2CCCC[C@@H]2N2CCCCC2)cc1F`
22.6 nM

* * *

- Target Desc: hNav1.7 (Homo sapiens (Human), UniProt Q15858)
- Assay Text: Tritiated compound binding to membranes from cells expressing hNav1.7 and the β1 subunit, modified protocol (LBA, Ex. 243B)
- Applied Conditions: 300 pM [3H]compound, room temperature, read-out: Nav1.7 LBA (Ex. 243B) IC50
Where a name gives a salt, the structure may show the parent alone.
Reported Property: log10(IC50) (log10 of the value in nM)
Lab note - IC50 converted to log10 from values in nM.

Give recorded log10(IC50). `O=S(=O)(Nc1cccc(F)n1)c1cc(Cl)c(N[C@@H]2CCCC[C@H]2N2CCCCC2)cc1F`
3.35

Give recorded log10(IC50). CCN(C)[C@H]1CCCC[C@@H]1N1CCOc2cc(S(=O)(=O)Nc3nccs3)c(F)cc21 (racemic)
2.48

Give recorded log10(IC50). `CN(C)[C@H]1C[C@@H](C(F)(F)F)CC[C@@H]1Nc1cc(F)c(S(=O)(=O)Nc2ccncn2)cc1Cl`
2.36

Give recorded log10(IC50). CN(C)[C@H]1C[C@@H](c2cccc(Cl)c2)CC[C@@H]1Nc1cc(F)c(S(=O)(=O)Nc2ccncn2)cc1Cl [Example 231, formate]
0.35

Give recorded log10(IC50). CN(C)[C@@H]1CN(c2cccc(C(F)(F)F)c2)CC[C@H]1Nc1cc(F)c(S(=O)(=O)Nc2ccncn2)cc1Cl [Example 234, formate]
3.30

Give recorded log10(IC50). `O=S(=O)(Nc1cccc(F)n1)c1cc(Cl)c(N[C@H]2CCCC[C@@H]2N2CCCCC2)cc1F`
1.24

Give recorded log10(IC50). CN(C)[C@H]1CC2C(C[C@@H]1Nc1cc(F)c(S(=O)(=O)Nc3nccs3)cc1Cl)C2(F)F (stereo in doubt) [Example 207]
3.20

Give recorded log10(IC50). `CN1CCC[C@H]1C(=O)N(C)[C@H]1CCCC[C@@H]1Nc1cc(F)c(S(=O)(=O)Nc2nccs2)cc1Cl`
2.49

Give recorded log10(IC50). O=S(=O)(Nc1nccs1)c1cc(Cl)c(N[C@H]2CCCC[C@@H]2N2CCC[C@H](CO)C2)cc1F [Example 168, formate]
1.60

Give recorded log10(IC50). `CN1CC(C(=O)N(C)[C@H]2CCCC[C@@H]2Nc2cc(F)c(S(=O)(=O)Nc3nccs3)cc2Cl)C1`
2.43

Give recorded log10(IC50). CN(C)[C@H]1CCC(c2ccccc2F)C[C@@H]1Nc1cc(F)c(S(=O)(=O)Nc2nccs2)cc1Cl (stereo in doubt) [Example 173]
1.25

Give recorded log10(IC50). CCN(C)[C@H]1CCCC[C@@H]1Nc1cc(F)c(S(=O)(=O)Nc2nc(C)cs2)cc1Cl [Example 102, formate]
2.63

Give recorded log10(IC50). N#C[C@@H]1CCN([C@H]2CCCC[C@@H]2Nc2cc(F)c(S(=O)(=O)Nc3nccs3)cc2Cl)C1 [Example 161, formate]
2.27

Give recorded log10(IC50). `CN(C)[C@H]1C[C@@H]2C[C@@H]2C[C@@H]1Nc1cc(F)c(S(=O)(=O)Nc2nccs2)cc1Cl`
1.86

Give recorded log10(IC50). `CN1CC[C@@H]1C(=O)N(C)[C@H]1CCCC[C@@H]1Nc1cc(F)c(S(=O)(=O)Nc2nccs2)cc1Cl`
2.75

Give recorded log10(IC50). `O=S(=O)(Nc1ccncn1)c1cc(Cl)c(N[C@H]2CCCC[C@@H]2N2CCCCC2)cc1F`
2.22

Give recorded log10(IC50). `O=S(=O)(Nc1cccc(F)n1)c1cc(Cl)c(N[C@H]2CCCC[C@@H]2N2C[C@@H]3[C@@H](CO)[C@@H]3C2)cc1F`
2.89

Give recorded log10(IC50). `N#C[C@H]1CCCN([C@H]2CCCC[C@@H]2Nc2cc(F)c(S(=O)(=O)Nc3nccs3)cc2Cl)C1`
1.78

Give recorded log10(IC50). `CN(C)[C@H]1C[C@@H](c2cccc(C(F)(F)F)c2)CC[C@@H]1Nc1cc(F)c(S(=O)(=O)Nc2ccncn2)cc1Cl`
0.12

Give recorded log10(IC50). `Cc1csc(NS(=O)(=O)c2cc(Cl)c(N[C@H]3CCCC[C@@H]3N(C)CCO)cc2F)n1`
2.83

Give recorded log10(IC50). O=S(=O)(Nc1cccc(F)n1)c1cc(Cl)c(N[C@H]2CCCC[C@@H]2N2CC3CC3C2)cc1F (stereo partly shown)
1.50

Give recorded log10(IC50). CN(C)[C@H]1CCCC[C@@H]1Oc1cc(F)c(S(=O)(=O)Nc2cccc(F)n2)cc1C1CC1 [Example 114, formate]
2.42

Give recorded log10(IC50). `Cc1nc(NS(=O)(=O)c2cc(Cl)c(N[C@H]3CCCC[C@@H]3N(C)C)cc2F)sc1Cl`
1.58

Give recorded log10(IC50). CN(C)[C@H]1CCC(c2ccccc2F)C[C@@H]1Nc1cc(F)c(S(=O)(=O)Nc2nccs2)cc1Cl (stereo in doubt) [Example 174]
2.55

Give recorded log10(IC50). COc1cc(S(=O)(=O)Nc2ccncn2)c(F)cc1N[C@H]1CC[C@H](c2cccc(C(F)(F)F)c2)C[C@@H]1N(C)C [Example 241, formate]
0.57

Give recorded log10(IC50). `C[N+](C)([O-])[C@H]1C[C@@H](c2cccc(C(F)(F)F)c2)CC[C@@H]1Nc1cc(F)c(S(=O)(=O)Nc2ccncn2)cc1Cl`
1.07

Give recorded log10(IC50). O=S(=O)(Nc1nccs1)c1cc(Cl)c(N[C@H]2CCCC[C@@H]2N2CC3CC3C2)cc1F (stereo partly shown)
1.31

Give recorded log10(IC50). `CN(C[C@@H](O)C1CC1)[C@H]1CCCC[C@@H]1Nc1cc(F)c(S(=O)(=O)Nc2nccs2)cc1Cl`
2.46
